- SYSTEM: human HER3 endogenously expressed on human cancer cells (SK-Br-3, BT-474, MCF7) (human, UniProt P21860 20-1342)
- EXPERIMENT: cell-based or functional assay
VALUE_TYPE: MCF7 proliferation IC50 (pM)
Express your answer in pM, writing the number without its unit.

Solved entries:
MOR12921 (antibody, human IgG1, lambda, V domains shown, Tested as IgG) VH: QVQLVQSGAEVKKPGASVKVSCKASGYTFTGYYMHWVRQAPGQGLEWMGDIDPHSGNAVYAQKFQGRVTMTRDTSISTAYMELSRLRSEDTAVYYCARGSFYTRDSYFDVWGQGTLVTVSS VL: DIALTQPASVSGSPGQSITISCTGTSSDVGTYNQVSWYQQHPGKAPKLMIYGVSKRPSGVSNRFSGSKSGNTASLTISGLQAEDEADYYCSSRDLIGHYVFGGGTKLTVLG :: 2310
MOR12603 (antibody, human IgG1, kappa, V domains shown, Tested as IgG) VH: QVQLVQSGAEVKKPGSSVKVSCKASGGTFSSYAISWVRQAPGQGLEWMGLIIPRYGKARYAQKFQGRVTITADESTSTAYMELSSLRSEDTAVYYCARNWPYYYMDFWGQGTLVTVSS VL: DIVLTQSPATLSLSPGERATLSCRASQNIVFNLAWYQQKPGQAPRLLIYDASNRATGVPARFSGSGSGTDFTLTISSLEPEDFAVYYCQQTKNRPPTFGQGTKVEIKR :: 58

Lab book: MCF7 proliferation IC50 of MOR13658 (antibody, human IgG1, lambda, V domains shown, Tested as IgG) VH: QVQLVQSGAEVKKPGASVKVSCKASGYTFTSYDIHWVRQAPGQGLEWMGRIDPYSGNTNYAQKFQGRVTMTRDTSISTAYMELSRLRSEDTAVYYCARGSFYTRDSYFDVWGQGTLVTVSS VL: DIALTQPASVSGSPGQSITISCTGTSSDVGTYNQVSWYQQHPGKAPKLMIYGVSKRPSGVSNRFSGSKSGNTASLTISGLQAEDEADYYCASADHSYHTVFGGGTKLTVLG noted as 174

Measured MCF7 proliferation IC50 of MOR12515 (antibody, human IgG1, lambda, V domains shown, Tested as IgG) VH: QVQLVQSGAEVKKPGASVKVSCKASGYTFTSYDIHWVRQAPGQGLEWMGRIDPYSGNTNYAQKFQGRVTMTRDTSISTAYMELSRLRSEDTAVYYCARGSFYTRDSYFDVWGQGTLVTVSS VL: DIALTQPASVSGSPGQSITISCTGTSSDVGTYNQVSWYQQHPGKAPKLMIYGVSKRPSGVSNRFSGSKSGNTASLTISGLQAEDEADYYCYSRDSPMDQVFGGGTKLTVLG : 1090

Measured MCF7 proliferation IC50 of MOR12516 (antibody, human IgG1, lambda, V domains shown, Tested as IgG) VH: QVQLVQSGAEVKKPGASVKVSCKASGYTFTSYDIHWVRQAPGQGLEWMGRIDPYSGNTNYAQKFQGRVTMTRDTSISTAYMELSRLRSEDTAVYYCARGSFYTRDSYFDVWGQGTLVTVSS VL: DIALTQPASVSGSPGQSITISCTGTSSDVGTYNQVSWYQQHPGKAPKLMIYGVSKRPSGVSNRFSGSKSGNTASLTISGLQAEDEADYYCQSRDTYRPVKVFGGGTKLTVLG : 492
